# maps each entry to its fraction unbound
- assay.protocol: Plasma protein binding (PPB), rat
- Type: in vitro ADME
- Description: In vitro ADMET of compounds of the present disclosure was carried out according to known methods in the art. Below are data for certain compounds of the present disclosure.
Answer with a bare number; do not write a unit.

Example molecules with recorded fraction unbound:
molecule: COc1ccc(CNC(=O)c2c(Cl)cc[n+]([O-])c2OCC2CC2)cc1F [Compound 169]
fraction unbound: 0.367
--
molecule: O=C(NCc1ccc2c(c1)OCO2)c1c(Cl)cccc1Cl [Control 1, reference compound]
fraction unbound: 0.037

// recorded fraction unbound for COc1ccc(CNC(=O)c2c(Cl)ccnc2OCC2CC2)cc1F [Compound 161] : 0.039
